A collection of molecules and their measured melting point

Example cases with answers are listed next.
[[record]]
record_smiles = "Cl.NCCc1nnc(-c2cccc(-c3ccc(OC(F)(F)F)cc3)c2)[nH]1"
measurement_name = "melting point"
observed_measurement = "253 to 257 °C"

[[record]]
record_smiles = "Cl.NCCc1nnc(-c2cc(Cl)cc(Cl)c2)[nH]1"
measurement_name = "melting point"
observed_measurement = "222 to 224 °C"

[[record]]
record_smiles = "CCCCOc1ccc(-c2nnc(CCN)[nH]2)cc1.Cl"
measurement_name = "melting point"
observed_measurement = "205 to 207 °C"

[[record]]
record_smiles = "Cl.NCCc1nnc(-c2cccc(I)c2)[nH]1"
measurement_name = "melting point"
observed_measurement = "224 to 225 °C"


Query molecule follows.
The molecule identified as `Cl.NCCc1nnc(-c2ccc([N+](=O)[O-])cc2)[nH]1` registered its melting point at 239 to 240 °C

###

- experimental_system: TAAR1 (Homo sapiens)
- procedure_text: BRET-based cellular cAMP (EPAC biosensor) assay of TAAR1 agonism in transfected HEK-293 cells
- condition_description: TAAR1 activation, BRET assay, HEK-293; mean from 3 assays
measurement_name: EC50

[[record]]
molecule = "Cl.NCCc1nnc(-c2ccccc2OC(F)(F)F)[nH]1"
experimental_system = "TAAR1 (Homo sapiens)"
observed_measurement = "inactive"

[[record]]
molecule = "Cl.NCCc1nnc(-c2cccc(C(F)(F)F)c2)[nH]1 [Compound 8]"
experimental_system = "TAAR1 (Homo sapiens)"
observed_measurement = "210 nM"

[[record]]
molecule = "Cl.NCCc1nnc(-c2ccncc2)[nH]1"
experimental_system = "TAAR1 (Homo sapiens)"
observed_measurement = "> 1000 nM"

[[record]]
molecule = "Cl.NCCc1nnc(-c2cccc(C(F)(F)F)c2)[nH]1 [Compound 18]"
experimental_system = "TAAR1 (Homo sapiens)"
observed_measurement = "inactive"

[[record]]
molecule = "Cl.NCCc1nnc(-c2cccc(-c3ccc(F)cc3F)c2)[nH]1"
experimental_system = "TAAR1 (Homo sapiens)"
observed_measurement = "300 nM"


The molecule identified as `CN(C)c1ccc(-c2nnc(CCN)[nH]2)cc1` registered its EC50 at 730 nM

The molecule identified as `COc1ccc(-c2nnc(CCN)[nH]2)cc1OC.Cl` registered its EC50 at inactive

###

A collection of compounds and their measured Emax
- experimental_system: TAAR1 (Homo sapiens, UniProt Q96RJ0)
- Sequence (Q96RJ0 whole entry): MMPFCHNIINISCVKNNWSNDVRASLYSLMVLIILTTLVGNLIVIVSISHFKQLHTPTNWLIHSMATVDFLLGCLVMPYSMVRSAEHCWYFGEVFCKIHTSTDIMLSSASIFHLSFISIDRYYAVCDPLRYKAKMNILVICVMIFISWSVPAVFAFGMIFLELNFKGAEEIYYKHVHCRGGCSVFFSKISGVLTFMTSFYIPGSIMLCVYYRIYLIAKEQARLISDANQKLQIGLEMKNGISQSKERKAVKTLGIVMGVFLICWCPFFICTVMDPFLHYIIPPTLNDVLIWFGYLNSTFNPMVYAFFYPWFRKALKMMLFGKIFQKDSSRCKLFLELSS
- procedure_text: BRET-based cellular cAMP (EPAC biosensor) assay of TAAR1 agonism in transfected HEK-293 cells
- condition_description: HEK293, read-out: Emax: maximum observed activation of TAAR1 relative to that observed for 1 μM of β-PEA
Only the number, expressed in %, is required.

Example cases with answers are listed next.
[[record]]
record_smiles = "COc1cccc(-c2nnc(CCN)[nH]2)c1.Cl"
observed_measurement = 132

[[record]]
record_smiles = "COc1ccc(-c2ccc(-c3nnc(CCN)[nH]3)cc2)cc1OC.Cl"
observed_measurement = 104

[[record]]
record_smiles = "Cc1cc(-c2nnc(CCN)[nH]2)ccc1I.Cl"
observed_measurement = 76

[[record]]
record_smiles = "Cl.NCCc1nnc(-c2ccncc2)[nH]1"
observed_measurement = 47

[[record]]
record_smiles = "COc1ccc(-c2ccc(-c3nnc(CCN)[nH]3)cc2)cc1.Cl"
observed_measurement = 97


Observed Emax, TAAR1 (Homo sapiens, UniProt Q96RJ0), `Cl.NCCc1nnc(-c2ccc(Cl)cc2)[nH]1` : 107

Observed Emax, TAAR1 (Homo sapiens, UniProt Q96RJ0), `CCOc1ccc(-c2nnc(CCN)[nH]2)cc1.Cl` : 139

Observed Emax, TAAR1 (Homo sapiens, UniProt Q96RJ0), `Cl.NCCc1nnc(-c2cccc(Br)c2)[nH]1` : 124

###

measurement_name: melting point

Example cases with answers are listed next.
[[record]]
record_smiles = "Cl.NCCc1nnc(-c2cnccn2)[nH]1"
measurement_name = "melting point"
observed_measurement = "184 to 186 °C"

[[record]]
record_smiles = "Cl.NCCc1nnc(-c2ccc(OCc3ccc(F)cc3)cc2)[nH]1"
measurement_name = "melting point"
observed_measurement = "220 to 222 °C"

[[record]]
record_smiles = "Cl.NCCc1nnc(COc2ccccc2)[nH]1"
measurement_name = "melting point"
observed_measurement = "206 to 207 °C"

[[record]]
record_smiles = "Cl.NCCc1nnc(-c2ccc(OC(F)(F)F)cc2)[nH]1"
measurement_name = "melting point"
observed_measurement = "253 to 254 °C"

[[record]]
record_smiles = "Cc1cc(C)cc(-c2nnc(CCN)[nH]2)c1.Cl"
measurement_name = "melting point"
observed_measurement = "232 to 234 °C"

[[record]]
record_smiles = "Cl.NCCc1nnc(-c2ccc(OCc3ccccc3)cc2)[nH]1"
measurement_name = "melting point"
observed_measurement = "238 to 240 °C"

[[record]]
record_smiles = "Cl.NCCc1nnc(-c2ccc(-c3ccc(OC(F)(F)F)cc3)cc2)[nH]1"
measurement_name = "melting point"
observed_measurement = "299 to 300 °C"

[[record]]
record_smiles = "Cl.NCCc1nnc(-c2ccc(OCc3cccc(F)c3)cc2)[nH]1"
measurement_name = "melting point"
observed_measurement = "214 to 216 °C"


The molecule identified as `Cl.NCCc1nnc(-c2ccc(-c3cccc(F)c3)cc2)[nH]1` registered its melting point at 260 to 262 °C

The molecule identified as `Cl.NCCc1nnc(-c2cccs2)[nH]1` registered its melting point at 248 to 250 °C

###

- experimental_system: TAAR1 (Homo sapiens, UniProt Q96RJ0)
- procedure_text: BRET-based cellular cAMP (EPAC biosensor) assay of TAAR1 agonism in transfected HEK-293 cells
- condition_description: relative to 1 μM β-PEA; mean from 3 BRET assays, errors ±5–10%
measurement_name: Emax: maximum observed activation of TAAR1 relative to that observed for 1 μM of β-PEA

Example cases with answers are listed next.
[[record]]
compound = "Cl.NCCc1nnc(-c2cccc(-c3ccc(F)cc3F)c2)[nH]1 [Compound 66]"
experimental_system = "TAAR1 (Homo sapiens, UniProt Q96RJ0)"
observed_measurement = 91

[[record]]
compound = "Cl.NCCc1nnc(COc2ccccc2)[nH]1 [Compound 17]"
experimental_system = "TAAR1 (Homo sapiens, UniProt Q96RJ0)"
observed_measurement = "inactive"

[[record]]
compound = "Cl.NCCc1nnc(-c2cnccn2)[nH]1 [Compound 38]"
experimental_system = "TAAR1 (Homo sapiens, UniProt Q96RJ0)"
observed_measurement = "inactive"

[[record]]
compound = "COc1ccc(-c2nnc(CCN)[nH]2)cc1OC.Cl [Compound 11]"
experimental_system = "TAAR1 (Homo sapiens, UniProt Q96RJ0)"
observed_measurement = "inactive"

[[record]]
compound = "Cl.NCCc1nnc(-c2ccccc2[N+](=O)[O-])[nH]1 [Compound 27]"
experimental_system = "TAAR1 (Homo sapiens, UniProt Q96RJ0)"
observed_measurement = 69

[[record]]
compound = "CN(C)c1cccc(-c2nnc(CCN)[nH]2)c1.Cl [Compound 24]"
experimental_system = "TAAR1 (Homo sapiens, UniProt Q96RJ0)"
observed_measurement = "inactive"

[[record]]
compound = "Cl.NCCc1nnc(-c2cccc(C(F)(F)F)c2)[nH]1 [Compound 8]"
experimental_system = "TAAR1 (Homo sapiens, UniProt Q96RJ0)"
observed_measurement = 108

[[record]]
compound = "Cl.NCCc1nnc(-c2cccc(C(F)(F)F)c2)[nH]1 [Compound 18]"
experimental_system = "TAAR1 (Homo sapiens, UniProt Q96RJ0)"
observed_measurement = "inactive"


The compound identified as Cl.NCCc1nnc(-c2ccc(C(F)(F)F)cc2)[nH]1 [Compound 15] registered its Emax: maximum observed activation of TAAR1 relative to that observed for 1 μM of β-PEA at inactive

The compound identified as Cl.NCCc1nnc(C(c2ccccc2)c2ccccc2)[nH]1 [Compound 13] registered its Emax: maximum observed activation of TAAR1 relative to that observed for 1 μM of β-PEA at inactive

The compound identified as Cl.NCCc1nnc(-c2ccc([N+](=O)[O-])cc2)[nH]1 [Compound 14] registered its Emax: maximum observed activation of TAAR1 relative to that observed for 1 μM of β-PEA at inactive

The compound identified as CCOc1cc(-c2nnc(CCN)[nH]2)cc(OCC)c1OCC.Cl [Compound 32] registered its Emax: maximum observed activation of TAAR1 relative to that observed for 1 μM of β-PEA at inactive

The compound identified as Cl.NCCc1nnc(-c2ccccc2OC(F)(F)F)[nH]1 [Compound 39] registered its Emax: maximum observed activation of TAAR1 relative to that observed for 1 μM of β-PEA at inactive

###

- experimental_system: TAAR1 (Homo sapiens)
- procedure_text: BRET-based cellular cAMP (EPAC biosensor) assay of TAAR1 agonism in transfected HEK-293 cells
measurement_name: pEC50
# pEC50 = -log10(concentration in molar units)

Example cases with answers are listed next.
[[record]]
record_smiles = "Cl.NCCc1nnc(-c2cccc(Br)c2)[nH]1"
experimental_system = "TAAR1 (Homo sapiens)"
observed_measurement = 6.66

[[record]]
record_smiles = "Cl.NCCc1nnc(-c2cc(Cl)cc(Cl)c2)[nH]1"
experimental_system = "TAAR1 (Homo sapiens)"
observed_measurement = 7.64

[[record]]
record_smiles = "CCOc1ccc(-c2nnc(CCN)[nH]2)cc1.Cl"
experimental_system = "TAAR1 (Homo sapiens)"
observed_measurement = 6.26

[[record]]
record_smiles = "Cl.NCCc1nnc(-c2ccccc2Br)[nH]1"
experimental_system = "TAAR1 (Homo sapiens)"
observed_measurement = 6.16


The compound identified as `Cc1cc(-c2nnc(CCN)[nH]2)ccc1Br.Cl` registered its pEC50 at 6.09

The compound identified as `CCCCOc1ccc(-c2nnc(CCN)[nH]2)cc1.Cl` registered its pEC50 at 7.47

meta.source: paper PMC9687812
